molecular target: SaCoaA (prokaryotic type II pantothenate kinase) (Staphylococcus aureus, UniProt Q8NVG0); construct: recombinant from pET-28a(+) (pET-Sa-coaA) in E. coli BL21 (DE3), nickel-resin purified, His-tag; assay: radiometric pantothenate kinase assay with D-[…]pantothenate
Sequence (Q8NVG0 whole entry): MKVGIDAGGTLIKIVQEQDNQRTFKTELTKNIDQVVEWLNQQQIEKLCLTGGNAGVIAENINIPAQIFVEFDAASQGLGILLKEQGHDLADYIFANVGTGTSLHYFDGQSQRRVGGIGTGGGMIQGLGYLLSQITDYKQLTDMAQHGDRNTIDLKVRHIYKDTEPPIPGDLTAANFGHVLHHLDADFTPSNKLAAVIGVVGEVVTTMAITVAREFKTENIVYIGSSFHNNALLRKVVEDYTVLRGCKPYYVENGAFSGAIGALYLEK
quantity measured: IC50 (µM)

> print(dat)
                                   compound  recorded.value
1  CC(C)(CO)[C@@H](O)C(=O)NCCCO [d-pantothenol]            1680
